# maps each entry to its inhibition
assay system: Major prion protein (Homo sapiens)
test details: reduces human prion protein on the cell surface, primary screen, cell-based, TR-FRET (AID 720596); further: 0% = median of the test wells and 100% = reference compound wells
measurement context: cell surface PrPC, TR-FRET read-out; at 13.8 µM; hits give high values
Among all 370,000 compounds or so, about 1,600 (0.43%) were called active. The sample as a whole holds a higher share of actives than the screen did.
# output: bare number, implied unit %

Observe how each entry below is paired with its result.
COc1ccccc1CNC(=O)c1cc(-c2cc(F)ccc2OC)n[nH]1 | -1.69
O=C(NNC(=O)C(O)c1ccccc1)NC1CCCCC1 (configuration not stated) | 5.45
CCc1nc2ccc(C(=O)NCCNC(C)=O)cn2c1N(CC)Cc1cccc(Br)c1 | 1.46
COc1cc(F)ccc1-c1cc(C(=O)NCC2CCCCC2)[nH]n1 | 9.68
Cc1sc2ncnc(SCC(=O)NC3CCS(=O)(=O)C3)c2c1C (configuration not stated) | 9.26

Query block: Look up inhibition: COc1ccc(OC)c(NC(=O)c2cc(-c3cc(F)ccc3OCC3CCCO3)n[nH]2)c1 (configuration not stated)
Result block: 84.9

Query block: Quick one: inhibition for Clc1ccc(-c2cc(COc3ccccc3)no2)cc1Cl ?
Result block: -6.65

Query block: Form field: reported inhibition of CCCCCCCCn1c2c(c(=N)c3c1CCC3)CCCC2
Result block: 34.1

Query block: Tell me the measured inhibition of O=c1[nH]cccc1-c1nc2ccccc2n1Cc1ccc(Cl)cc1 , please.
Result block: 48.8

Query block: Consider the compound shown here: CCCCCn1nnnc1-c1nc2cc3ccccc3cc2[nH]c1=O What is its recorded inhibition?
Result block: -2.3

Query block: Give its inhibition value. Item: O=C(CCCNS(=O)(=O)c1cccc2nsnc12)NCCN1CCN(c2ccccc2F)CC1
Result block: -22.9

Query block: // inhibition lookup, key: O=C(c1ccco1)N1CCN(CC(=O)N(C2CCCCC2)C2CCS(=O)(=O)C2)CC1 (configuration not stated)
Result block: 7.46

Query block: So what's the measured inhibition for this one? O=C(Cn1c(-c2cscn2)nc2ccccc21)Nc1ccc(Cl)cc1
Result block: 16.8

Values compiled from PubChem BioAssay AID720596.
